- Test Name: Apparent permeability across apical to basolateral side in human Caco2 cells
- Type: ADME, cell-based
- Experimental Context: caco-2

>  <Compound>
CC(=O)Nc1nnc(S(N)(=O)=O)s1 [ACETAZOLAMIDE]

>  <Papp A→B>
0.19 ×10⁻⁶ cm/s

$$$$

---

- Test system: Enterococcus faecalis
- Test Name: Antibacterial activity against Enterococcus faecalis HM-334 incubated for 18 to 20 hrs under aerobic condition by CLSI protocol based broth microdilution assay
- Assay type: functional
- Experimental Context: time hrs 18-20
Friendly reminder: MIC below 0.03 µg/mL is 1, at or above is -1.

>  <Given Smiles>
CC(C)CC(=O)Nc1nnc(S(N)(=O)=O)s1

>  <Tested System>
Enterococcus faecalis

>  <Category Label>
-1

$$$$
>  <Given Smiles>
NS(=O)(=O)c1nnc(NC(=O)CN2CCOCC2)s1

>  <Tested System>
Enterococcus faecalis

>  <Category Label>
-1

$$$$
>  <Given Smiles>
NS(=O)(=O)c1nnc(NC(=O)CC2CC2)s1

>  <Tested System>
Enterococcus faecalis

>  <Category Label>
-1

$$$$
>  <Given Smiles>
NS(=O)(=O)c1nnc(NC(=O)CCc2ccccc2)s1

>  <Tested System>
Enterococcus faecalis

>  <Category Label>
1

$$$$
>  <Given Smiles>
CC(C)(C)C(=O)Nc1nnc(S(N)(=O)=O)s1

>  <Tested System>
Enterococcus faecalis

>  <Category Label>
-1

$$$$
>  <Given Smiles>
NS(=O)(=O)c1nnc(NC(=O)CCC2CCCC2)s1

>  <Tested System>
Enterococcus faecalis

>  <Category Label>
1

$$$$
>  <Given Smiles>
NS(=O)(=O)c1nnc(NC(=O)CCC2CCCCC2)s1

>  <Tested System>
Enterococcus faecalis

>  <Category Label>
1

$$$$
>  <Given Smiles>
NS(=O)(=O)c1nnc(NC(=O)C2CCCCC2)s1

>  <Tested System>
Enterococcus faecalis

>  <Category Label>
-1

$$$$
>  <Given Smiles>
NS(=O)(=O)c1nnc(NC(=O)C2CCCC2)s1

>  <Tested System>
Enterococcus faecalis

>  <Category Label>
-1

$$$$
>  <Given Smiles>
CCCCCCC(=O)Nc1nnc(S(N)(=O)=O)s1

>  <Tested System>
Enterococcus faecalis

>  <Category Label>
1

$$$$
